Task for the reader: assign each of the following binders its reported SPOT peptide array binding signal intensity.
Target Or System: ScSla1-D1-D2
Experiment Notes: SPOT peptide array binding signal intensity (averaged, normalized) (arbitrary units (background-subtracted, floor 0; scale differs between SH3 domains)); higher = stronger binding of the SH3 domain to the peptide

Request the reported SPOT peptide array binding signal intensity associated with TKHKAPPPPPPTAET ≤ 0

Given the binder TPRLSLPRLPNKHHW , what is its reported SPOT peptide array binding signal intensity? 13.5

Name the recorded SPOT peptide array binding signal intensity for LRWRHKFFLPAIAAI . ≤ 0

Report SPOT peptide array binding signal intensity for APKHAPPPVPNETDN please. ≤ 0

Please look up its SPOT peptide array binding signal intensity: DDEDVPPQLPTRTKS 1

Query: SPOT peptide array binding signal intensity; subject: KTITLEVESSDTIDN ≤ 0

# lookup: SPOT peptide array binding signal intensity of RNNRPVPPPPPMRTT 1300

I am curious: what SPOT peptide array binding signal intensity value has been reported for VATSTSPKLPPRGKQ ? 17

Recorded SPOT peptide array binding signal intensity of VRVKKRPLIRPLNSS , please. 330

Name the reported SPOT peptide array binding signal intensity value associated with the binder DKSRPPRPPPKPLHL 83

// query SPOT peptide array binding signal intensity value for entry KLSRGRYGLPLSSRP 91.5

# get_value(readout='SPOT peptide array binding signal intensity', item= AERNYAPRLPRRETS ) 206

// returns reported SPOT peptide array binding signal intensity for input NGRRRPKFRVQLSGN 693

Quick check: SPOT peptide array binding signal intensity of NNQRRKPLLLNIGDH ? 37

Requested field: SPOT peptide array binding signal intensity. Item: KTRLRPAFIQQLWSS 36

What SPOT peptide array binding signal intensity value was documented for this binder, AAAPKHAPPPVPNET ? ≤ 0

# get_value(readout='SPOT peptide array binding signal intensity', item= NMLKKKPLKKPLKRF ) 616

Fill in the blank: the reported SPOT peptide array binding signal intensity of NTMKKRPAPPSLPSL is ____. 234

What does the data say about its SPOT peptide array binding signal intensity? Entry: DFTLPPPPPPPGLDE ≤ 0

Can you look up the measured SPOT peptide array binding signal intensity of PSPSSSPPPIPKTAN for me? ≤ 0

For the binder NNNKMRPHLPPLSSG , what SPOT peptide array binding signal intensity is on record? 156

State the recorded SPOT peptide array binding signal intensity for this entry: RRRRRPHRIERPLSN 303

For the binder AIPPPVPNRPGGTTN , what SPOT peptide array binding signal intensity is on record? 13.5

Any idea what its SPOT peptide array binding signal intensity is? The binder is NHSRSLFSLPGNQQS 90.5

Request the reported SPOT peptide array binding signal intensity associated with YLTRPLPSTPNEDSR 17.5

Given KKAPPPVVKPKPRNF , state its recorded SPOT peptide array binding signal intensity. 3640

# lookup: SPOT peptide array binding signal intensity of LKVTPGRRAPTISKI 61.5

Need SPOT peptide array binding signal intensity, item RRRIAYPFYPFKKLG ≤ 0

Data request, read-out SPOT peptide array binding signal intensity, for PSRRDSLSIPRAVDA ≤ 0

Param item = ALFRLSFFFPLDPAY ; retrieve measured SPOT peptide array binding signal intensity. 120
